pIC50 overview
assayed_system: tyrosyl-DNA phosphodiesterase 1 (TDP1) (Homo sapiens, UniProt Q9NUW8)
Sequence (Q9NUW8 whole entry): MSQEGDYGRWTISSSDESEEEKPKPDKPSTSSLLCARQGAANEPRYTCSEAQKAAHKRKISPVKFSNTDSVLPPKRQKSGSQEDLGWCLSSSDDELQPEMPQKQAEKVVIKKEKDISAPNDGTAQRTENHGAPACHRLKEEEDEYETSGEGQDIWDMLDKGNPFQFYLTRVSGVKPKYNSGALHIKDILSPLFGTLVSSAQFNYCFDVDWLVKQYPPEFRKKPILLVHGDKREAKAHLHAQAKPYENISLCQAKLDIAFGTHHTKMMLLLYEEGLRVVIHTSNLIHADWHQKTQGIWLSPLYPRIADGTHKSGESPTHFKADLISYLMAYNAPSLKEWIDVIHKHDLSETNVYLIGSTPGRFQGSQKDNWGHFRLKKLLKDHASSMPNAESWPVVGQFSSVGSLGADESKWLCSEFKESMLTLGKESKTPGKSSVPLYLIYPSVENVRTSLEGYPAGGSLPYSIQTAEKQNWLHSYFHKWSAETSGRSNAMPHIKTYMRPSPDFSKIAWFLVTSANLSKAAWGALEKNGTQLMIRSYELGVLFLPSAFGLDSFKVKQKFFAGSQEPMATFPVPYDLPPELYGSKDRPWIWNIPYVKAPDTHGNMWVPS
assay_name: fluorescent hairpin DNA sensor (ATTO488/BHQ1) assay with purified human TDP1, 13-point dose response
Format: biochemical
// pIC50 is dimensionless: -log10 of concentration (M)

compound	pIC50
O=[N+]([O-])c1ccc(C2CC(c3ccccc3)c3cccc(P(=S)(c4ccccc4)c4ccccc4)c3N2)cc1 (centres unmarked) [PSTHQ-13]	4.88

q: Item under review: FC(F)(F)c1ccc(C2CC(c3ccccc3)c3cccc(P(=S)(c4ccccc4)c4ccccc4)c3N2)cc1 (centres unmarked) [PSTHQ-2] . Reported pIC50?
a: 5.37

###

assayed_system: tyrosyl-DNA phosphodiesterase 1 (TDP1) (Homo sapiens, UniProt Q9NUW8)
assay_name: fluorescent hairpin DNA sensor (ATTO488/BHQ1) assay with purified human TDP1, 13-point dose response
Type: biochemical
condition: read-out: IC50
quantity_measured: pIC50
// pIC50 is dimensionless: -log10 of concentration (M)

q: Item under review: "COc1ccc(-c2cc(-c3ccc([N+](=O)[O-])cc3)nc3cccnc23)cc1" . Reported pIC50?
a: 4.42
